Collected literature values of Ki measured for 5-hydroxytryptamine receptor 5A (Homo sapiens, UniProt P47898).
quantity.name: Ki

                            structure_string        result
 0  CC1=C(c2c(F)cc(F)cc2F)c2cc(C(=O)N=C(N)N)ccc2OC1   0.3 to 3 nM
 1  NC(N)=NC(=O)c1ccc2c3c(F)cccc3n(C3CCOCC3)c2c1       0.56 nM
 2  CCOc1ccccc1C1=CCCc2ccc(C(=O)N=C(N)N)cc21  30 to 300 nM
 3  CC1=C(c2ccc(C)nc2)c2cc(C(=O)N=C(N)N)ccc2CC1    3 to 30 nM
 4  NC(N)=NC(=O)c1ccc2c(c1)C(c1ccncc1F)=CCC2   0.3 to 3 nM
 5  NC(N)=NC(=O)N1CCc2c(Cl)ccc(-c3c(F)cc(F)cc3F)c2C1        1.1 nM
 6          COc1ccccc1Cn1cc(-c2ccc(C)o2)nc1N      < 600 nM
 7  N#Cc1cc(F)c(-c2ccncc2)c2cc(C(=O)N=C(N)N)ccc12  30 to 300 nM
 8  CSc1ccc2ccc(C(=O)N=C(N)N)cc2c1-c1c(F)cc(F)cc1F    1 to 30 nM
 9  NC(N)=NC(=O)c1ccc2c3ccccc3n(C3CCN(c4ccccc4)CC3)c2c1       ≤ 50 nM
10  N#Cc1ccc(F)c(-c2cccc3ccc(C(=O)N=C(N)N)cc23)c1   0.3 to 3 nM
